- system: S-adenosylmethionine decarboxylase proenzyme (Trypanosoma brucei brucei)
- assayInfo: Inhibition of AdoMetDC in bloodstream form Trypanosoma brucei brucei Lister 427 assessed as increase in prozyme level at 1.5 times EC50 after 24 hrs by Western blot method
Active and inactive are the calls of the source. No cut-off for these calls is given here.
One label from this list, please: active, inactive

Cc1cc(Nc2cc(Cl)cc(Cl)c2)ncn1 inactive
Nc1nccc(Nc2cc(Cl)cc(Cl)c2)n1 active
Cc1cc(Nc2cc(Cl)cc(Cl)c2)nc(N)n1 active

For the next question, use this molecule.
Req: Test call for this molecule, please: "Nc1nc(Cl)cc(Nc2cc(Cl)cc(Cl)c2)n1"
Resp: inactive

----------
- assayInfo: Inhibition of recombinant Trypanosoma brucei N-terminal His6-tagged AdoMetDC/prozyme hetrodimer expressed in Escherichia coli BL21/DE3 cells at pH 7.2 by RapidFire-MS-based enzyme activity assay
measuredProperty: IC50 (µM)
Please reply with the bare figure in µM and do not write the unit itself.

Cc1cc(Nc2cc(C(F)(F)F)ccc2Cl)nc(N)n1 199
Cc1cc(Nc2cc(Cl)c(C)c(Cl)c2)nc(N)n1 20
Cc1cc(Nc2cc(Cl)cc(C(F)(F)F)c2)nc(N)n1 3.9
Cc1cc(Nc2cc(Br)cc(OCC(C)C)c2)nc(N)n1 11

Next compound, please.
Req: Retrieve IC50 measured for "Cc1cc(Nc2cc(Cl)cc(-c3cc(C(F)(F)F)cc(C(F)(F)F)c3)c2)nc(N)n1" and print it.
Resp: 28

----------
- assayInfo: Inhibition of recombinant Trypanosoma brucei N-terminal His6-tagged AdoMetDC/prozyme hetrodimer expressed in Escherichia coli BL21/DE3 cells at pH 7.2 by RapidFire-MS-based enzyme activity assay
measuredProperty: IC50 (µM)
Please reply with the bare figure in µM and do not write the unit itself.

Recorded results for 2 compounds are shown here.
COc1cc(Nc2cc(C)nc(N)n2)cc(OC)c1 17
Cc1cc(Nc2cc(Cl)cc(Cl)c2)nc(N)n1 3.7

Req: Retrieve IC50 measured for "Cc1cc(Nc2cc(Br)cc(OCC(F)(F)F)c2)nc(N)n1" and print it.
Resp: 1.6

Req: Retrieve IC50 measured for "CC(C)c1cc(Nc2cc(Cl)cc(Cl)c2)nc(N)n1" and print it.
Resp: 12

Req: Retrieve IC50 measured for "CSc1cccc(Nc2cc(C)nc(N)n2)c1" and print it.
Resp: 149

----------
Below, each entry is listed with its recorded IC50.
- system: S-adenosylmethionine decarboxylase proenzyme (Homo sapiens, UniProt P17707)
- Sequence (P17707 1-67 limits assumed): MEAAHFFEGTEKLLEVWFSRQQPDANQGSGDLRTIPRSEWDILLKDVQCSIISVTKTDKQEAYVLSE
- Sequence (P17707 68-334 limits assumed): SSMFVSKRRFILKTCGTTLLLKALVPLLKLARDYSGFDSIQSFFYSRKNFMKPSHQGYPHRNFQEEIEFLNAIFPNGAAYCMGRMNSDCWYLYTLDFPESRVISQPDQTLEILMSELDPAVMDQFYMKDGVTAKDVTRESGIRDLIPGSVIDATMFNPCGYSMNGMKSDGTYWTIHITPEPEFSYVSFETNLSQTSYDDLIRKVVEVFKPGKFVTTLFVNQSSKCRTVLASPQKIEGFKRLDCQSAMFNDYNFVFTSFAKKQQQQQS
- assayInfo: Inhibition of recombinant human N-terminal His6-tagged AdoMetDC expressed in Escherichia coli BL21/DE3 cells at pH 7.2 by RapidFire-MS-based enzyme activity assay

Recorded results for 3 compounds are shown here.
Cc1cc(Nc2cc(Cl)c(N3CCOCC3)c(Cl)c2)nc(N)n1 > 180 µM
Cc1cc(Nc2cc(Cl)c(C)c(Cl)c2)nc(N)n1 > 63 µM
Nc1nc(Nc2cc(Cl)cc(Cl)c2)cc(-c2ccccc2)n1 > 21 µM

Req: Retrieve IC50 measured for "Cc1cc(Nc2cc(Cl)cc(Cl)c2)nc(N(C)C)n1" and print it.
Resp: > 180 µM

Req: Retrieve IC50 measured for "Cc1cc(Nc2cc(Cl)cc(-c3ccc(F)cc3)c2)nc(N)n1" and print it.
Resp: > 21 µM

Req: Retrieve IC50 measured for "Cc1ccc(-c2cc(Cl)cc(Nc3cc(C)nc(N)n3)c2)cc1" and print it.
Resp: > 63 µM

Req: Retrieve IC50 measured for "Cc1cc(Nc2cc(C(=O)Nc3cc(Cl)cc(Cl)c3)cc(C(=O)Nc3cc(Cl)cc(Cl)c3)c2)nc(N)n1" and print it.
Resp: > 180 µM

Req: Retrieve IC50 measured for "CCc1cc(Br)cc(Nc2cc(C)nc(N)n2)c1" and print it.
Resp: > 180 µM

Req: Retrieve IC50 measured for "Cc1cc(Nc2cc(Cl)cc(-c3ccc4nonc4c3)c2)nc(N)n1" and print it.
Resp: > 180 µM

Hey, just so you know, these numbers are from ChEMBL document CHEMBL4033778.
